pIC50: −log10 of the molar value.
Below: compounds with pIC50 recorded for Interstitial collagenase (Homo sapiens, UniProt P03956) in separate published works.

Problem: pIC50 for O=C(O)[C@H](CO)NS(=O)(=O)c1ccc2c(c1)Sc1ccccc1O2 ?
Solution: < 4.00

Problem: Consider the compound shown here: O=C(O)[C@@]1(N(CCNS(=O)(=O)C(F)(F)F)S(=O)(=O)c2ccc(-c3ccc(Cl)cc3)cc2)C[C@H]1c1ccccc1 (relative stereo) What is its recorded pIC50?
Solution: ≤ 5.00

Problem: I'd like to know its pIC50. The compound in question is COc1ccc(S(=O)(=O)N(C)c2cccc(/C(=C\C(=O)NO)c3ccc[n+]([O-])c3)c2)cc1
Solution: < 5.00

Problem: State the recorded pIC50 for this entry: CN(C)S(=O)(=O)N1CCN(S(=O)(=O)c2cc(F)c(Oc3ccc(Cl)cc3)c(F)c2)[C@@H](C(=O)NO)C1
Solution: 4.70 to 6.00

Problem: What value of pIC50 has been recorded for this entry: CC(=O)N1CCN(S(=O)(=O)c2ccc(OCc3ccccc3C)cc2)[C@@H](C(=O)NO)[C@@H]1C
Solution: 5.80

Problem: What value of measured pIC50 is listed for O=C(NO)[C@H]1CN(C(=O)N2CCOCC2)CCN1S(=O)(=O)c1ccc(Oc2ccc(Cl)cc2)c(F)c1 ?
Solution: 6.00 to 7.30

Problem: GET /values?readout=pIC50&item= O=C(NO)[C@H]1CN(C(=O)C(=O)N2CCOCC2)CCN1S(=O)(=O)c1cc(F)c(Oc2ccc(Cl)cc2)c(F)c1
Solution: 4.70 to 6.00

---

Please find below IC50 measurements for Interstitial collagenase (Homo sapiens), combined from several publications.

Problem: Given the entry O=C(O)[C@H]1[C@H](Cn2nnc3ccc(C(F)(F)F)cc3c2=O)CC[C@@H]1C(=O)c1ccc(OCCCC2CCCCC2)cc1 (racemic) , report its measured IC50.
Solution: > 40 µM

Problem: Need IC50, item C[C@H](NS(=O)(=O)c1ccc(C#Cc2ccc3ccccc3c2)cc1)C(=O)O
Solution: > 10 µM

Problem: For the compound O=C(CC(CCn1nnc2ccccc2c1=O)C(=O)O)c1coc2cc(OCCC3CCOCC3)ccc12 (racemic) , what IC50 is on record?
Solution: > 40 µM

Problem: If you can, please state the reported IC50 value of Cc1cc(C2CCN(S(=O)(=O)C3(C(=O)NO)CCOCC3)CC2)ccc1-c1cccc(OCCO)n1 .
Solution: > 1 µM

---

Listed below are molecules with IC50 for Interstitial collagenase (Homo sapiens), each taken from published literature.

Problem: Item Cc1cccc(COc2ccc(C(=O)[C@@H]3CC[C@H](Cn4nnc5ccc(C)cc5c4=O)[C@H]3C(=O)O)cc2)c1 (single isomer, unassigned) with Interstitial collagenase (Homo sapiens) - IC50?
Solution: 9.6 µM

Problem: So what IC50 did COCCOC(=O)N1CCN(S(=O)(=O)c2ccc(-c3cccc(F)c3)nc2)[C@@H](C(=O)NO)C1 get with Interstitial collagenase (Homo sapiens)?
Solution: 0.05 to 1 µM

Problem: Please state recorded IC50 (tested on Interstitial collagenase (Homo sapiens)) of O=C(NO)[C@H]1CN(C(=O)N2CCOCC2)CCN1S(=O)(=O)c1cc(F)c(Oc2ccc(Cl)cc2)c(F)c1
Solution: 1 to 20 µM

---

Compiled literature pIC50, tested on Interstitial collagenase (Homo sapiens, UniProt P03956).
pIC50: −log10 of the molar value.

Problem: State the recorded pIC50 for this entry: Cc1cc(C2CCN(S(=O)(=O)C3(C(=O)NO)CCOCC3)CC2)ccc1-c1cccc(OC[C@@H](O)CO)c1
Solution: < 6.00

Problem: Entry O=C(CC(CCn1nnc2ccccc2c1=O)C(=O)O)c1cc2cc(OCCc3ccccc3)ccc2o1 (single isomer, unassigned; (+)) : reported pIC50 = ?
Solution: < 4.40

Problem: Return reported pIC50; argument: O=C(CCl)NC(=O)N1CCN(S(=O)(=O)c2cc(F)c(Oc3ccc(Cl)cc3)c(F)c2)[C@@H](C(=O)NO)C1
Solution: 4.70 to 6.00

Problem: Reported pIC50, molecule O=C(O)CN([C@]1(C(=O)O)C[C@H]1c1ccccc1Cc1ccccc1)S(=O)(=O)c1ccc(-c2ccc(Cl)cc2)cc1 (relative stereo) : ____
Solution: ≤ 5.00

Problem: Give the measured pIC50 of O=C(O)[C@H](CCc1ccccc1)NS(=O)(=O)c1ccc2c(c1)Sc1ccccc1O2 .
Solution: < 4.00

Problem: I am curious: what pIC50 value has been reported for CC(C)[C@@H](NS(=O)(=O)c1ccc2c(c1)Sc1ccccc1O2)C(=O)O ?
Solution: 5.20

Problem: Form field: reported pIC50 of CC(C)[C@H](NS(=O)(=O)c1ccc(C#Cc2ccc3ccccc3c2)cc1)C(=O)O
Solution: < 5.00

---

// molecules with pIC50 on Interstitial collagenase (Homo sapiens, UniProt P03956), multi-source literature
pIC50: −log10 of the molar value.

Problem: # query: pIC50 | item O=C(O)CN([C@@]1(C(=O)O)C[C@@H]1c1ccccc1)S(=O)(=O)c1ccc(-c2ccc(Cl)cc2)s1 | system: Interstitial collagenase (Homo sapiens, UniProt P03956)
Solution: ≤ 5.00

Problem: Request: pIC50, test system Interstitial collagenase (Homo sapiens, UniProt P03956), entry O=C(O)CN([C@]1(C(=O)O)C[C@H]1c1ccccc1Oc1ccccc1)S(=O)(=O)c1ccc(-c2ccc(Cl)cc2)cc1 (relative stereo)
Solution: ≤ 5.00

Problem: GET /values?readout=pIC50&system=Interstitial collagenase (Homo sapiens, UniProt P03956)&item= CN(C)c1ccc(CNC(=O)[C@H](CCC(=O)O)NC(=O)c2ccc(-c3ccccc3)cc2)cc1
Solution: < 4.30

Problem: Lab request: please report pIC50 under test system Interstitial collagenase (Homo sapiens, UniProt P03956) for CC(C)(C)OC(=O)NCCN([C@]1(C(=O)O)C[C@H]1c1ccccc1)S(=O)(=O)c1ccc(-c2ccc(Cl)cc2)cc1 (relative stereo)
Solution: ≤ 5.00

Problem: What is its pIC50 for Interstitial collagenase (Homo sapiens, UniProt P03956)? Entry: COCCOC(=O)N1CCN(S(=O)(=O)c2cc(F)c(Oc3ccc(F)cc3)c(F)c2)[C@@H](C(=O)NO)C1
Solution: 4.70 to 6.00

Problem: Interstitial collagenase (Homo sapiens, UniProt P03956) / pIC50 / O=C(O)CN([C@]1(C(=O)O)C[C@H]1c1ccc(-c2ccccc2)cc1)S(=O)(=O)c1ccc(-c2ccc(Cl)cc2)cc1 (relative stereo) : value?
Solution: ≤ 5.00

---

From various publications: IC50 for Interstitial collagenase (Homo sapiens, UniProt P03956).

Problem: // lookup IC50 for O=C(O)CC[C@H](NC(=O)c1ccc(-c2ccccc2)cc1)C(=O)NC1CCCC1
Solution: > 100 µM

Problem: Item O=C(CN([C@]1(C(=O)O)C[C@H]1c1ccccc1)S(=O)(=O)c1ccc(-c2ccc(Cl)cc2)cc1)N1CCCC1 (relative stereo) has what recorded IC50?
Solution: ≥ 10 µM

Problem: Given the entry O=C(NO)[C@H]1CN(C(=O)N2CCOCC2)CCN1S(=O)(=O)c1ccc(Oc2ccc(F)cc2)c(F)c1 , report its measured IC50.
Solution: 0.05 to 1 µM

Problem: For the compound shown here, CN1CCN(CCS(=O)(=O)N2CCN(S(=O)(=O)c3cc(F)c(Oc4ccc(Cl)cc4)c(F)c3)[C@@H](C(=O)NO)C2)CC1 , give the reported IC50.
Solution: 1 to 20 µM

Problem: Entry CCCCCOc1ccc2c(C(=O)CC(CCn3nnc4ccccc4c3=O)C(=O)O)coc2c1 (single isomer, unassigned) has what IC50?
Solution: > 40 µM

Problem: Record request: IC50 value, item O=C(NO)[C@H]1CN(C(=O)C(=O)N2CCCCC2)CCN1S(=O)(=O)c1cc(F)c(Oc2ccc(Cl)cc2)c(F)c1
Solution: 1 to 20 µM

Problem: Would you kindly share the measured IC50 for O=C(NO)[C@H]1CN(C(=O)c2ccncc2)CCN1S(=O)(=O)c1cc(F)c(Oc2ccc(Cl)cc2)c(F)c1 ?
Solution: 1 to 20 µM

Problem: I am curious: what IC50 value has been reported for CCCCCCC(=O)N1CCN(S(=O)(=O)c2cc(F)c(Oc3ccc(Cl)cc3)c(F)c2)[C@@H](C(=O)NO)C1 ?
Solution: > 20 µM

Problem: Recorded IC50 of CCOC(=O)N1CCN(CC(=O)N2CCN(S(=O)(=O)c3cc(F)c(Oc4ccc(Cl)cc4)c(F)c3)[C@@H](C(=O)NO)C2)CC1 , please.
Solution: > 20 µM

Problem: I'd like to know its IC50. The compound in question is O=C(CC(CCn1nnc2ccccc2c1=O)C(=O)O)c1cc2cc(OCc3ccccc3)ccc2o1 (single isomer, unassigned; (+))
Solution: > 40 µM

Problem: // lookup IC50 for O=C(O)C1(N(CCO)S(=O)(=O)c2ccc(-c3ccc(Cl)cc3)s2)CC1c1ccccc1 (centres unmarked)
Solution: ≥ 10 µM

Problem: Reported IC50 for O=C(O)[C@H](Cc1ccccc1)NS(=O)(=O)c1ccc(-n2nnc(-c3ccc4ccccc4c3)n2)cc1 : what is it?
Solution: > 10 µM

Problem: May I ask what IC50 has been recorded for CC#CCOc1ccc(S(=O)(=O)N(C)c2c(C(=O)NO)cc(OC)nc2OC)cc1 ?
Solution: ~10 µM

Problem: State the recorded IC50 for this entry: O=C(CC(CCn1nnc2ccccc2c1=O)C(=O)O)c1cc2ccc(OCCc3ccccc3)cc2s1 (racemic)
Solution: > 40 µM
